# Test system: wild oat
# assay-method-text: Test B pre/postemergence wild oat
# Assay type: in vivo, Avena fatua
# measurement-parameters: Preemergence, Rate 250 g/ha; scale 0 to 10, 0 is no effect, 10 is complete control
compounds and their reported Wild oats plant response rating
// no unit string in output, number only

Some entries whose results are on file:
Value of Wild oats plant response rating reported for the compound CC(C)N(C(=O)n1oc(=O)n(C(CF)CF)c1=O)c1ccccc1 [Compound 421] is 10

Value of Wild oats plant response rating reported for the compound CC(C)N(C(=O)n1oc(=O)n(C(C)(C)C)c1=O)c1ccccc1 [Compound 129] is 6

Value of Wild oats plant response rating reported for the compound CCN(Cc1ccncc1)C(=O)n1oc(=O)n(C(C)C)c1=O [Compound 189] is 3

Value of Wild oats plant response rating reported for the compound Cc1nc(Cl)sc1C(C)n1c(=O)on(C(=O)N(c2ccc(F)cc2F)C(C)C)c1=O (stereo not drawn) [Compound 405] is 0

Value of Wild oats plant response rating reported for the compound C=C(C)CCn1c(=O)on(C(=O)N(c2ccccc2)C(C)C)c1=O [Compound 418] is 0

More entries:
Value of Wild oats plant response rating reported for the compound CC(C)N(C(=O)n1oc(=O)n(CC2CO2)c1=O)c1ccc(F)cc1 (stereo not drawn) [Compound 188] is 0

Value of Wild oats plant response rating reported for the compound Cc1ccc(N(C(=O)n2oc(=O)n(C(C)C)c2=O)C(C)C)cc1 [Compound 132] is 8

Value of Wild oats plant response rating reported for the compound Cc1nc(Cl)sc1C(C)n1c(=O)on(C(=O)N(c2ccccc2)C(C)C)c1=O (stereo not drawn) [Compound 407] is 0

Value of Wild oats plant response rating reported for the compound CCN(C(=O)n1oc(=O)n(C2CCCCCC2)c1=O)C1CCCCC1 [Compound 429] is 0

* * *

# System: soybean
# assay-method-text: Test B pre/postemergence soybean
# Type: in vivo, Glycine max
# measurement-parameters: Preemergence, Rate 500 g/ha; scale 0 to 10 (0 no effect, 10 complete control)
molecules and their reported Soybean plant response rating
// no unit string in output, number only

Value of Soybean plant response rating reported for the molecule `CC(C)N(C(=O)n1oc(=O)n(C(C)C)c1=O)c1ccc(F)cc1F` is 9

Value of Soybean plant response rating reported for the molecule CC(C)N(C(=O)n1oc(=O)n(C(C)c2ccccc2)c1=O)c1ccc(Cl)cc1 (stereo not drawn) is 0

Value of Soybean plant response rating reported for the molecule CC(C)N(C(=O)n1oc(=O)n(C2CCCC(C(F)(F)F)C2)c1=O)c1ccc(F)cc1 (stereo not drawn) is 0

Value of Soybean plant response rating reported for the molecule CC(C)N(C(=O)n1oc(=O)n(CC2CO2)c1=O)c1ccc(F)cc1 (stereo not drawn) is 0

Value of Soybean plant response rating reported for the molecule `CC(C)N(C(=O)n1oc(=O)n(N(C)c2ccccc2)c1=O)c1ccc(F)cc1` is 0

Lab note: next molecule to report on.
Value of Soybean plant response rating reported for the molecule `CCN(C(=O)n1oc(=O)n(C(C)C)c1=O)c1nncs1` is 0

* * *

compounds and their reported Soybean plant response rating
# Test system: soybean
# assay-method-text: Test B pre/postemergence soybean
# Format: in vivo, Glycine max
# measurement-parameters: Rate 62 g/ha, Postemergence; scale of 0 to 10 where 0 is no effect and 10 is complete control
// no unit string in output, number only

Some entries whose results are on file:
Value of Soybean plant response rating reported for the compound `CC(C)N(C(=O)n1oc(=O)n(C2CCCCCC2)c1=O)c1ccc(F)cc1` is 1

Value of Soybean plant response rating reported for the compound CC(C)N(C(=O)n1oc(=O)n(CC2CO2)c1=O)c1ccc(F)cc1 (stereo not shown) is 1

Value of Soybean plant response rating reported for the compound `Cc1nc(C)c(-n2c(=O)on(C(=O)N(c3ccc(Cl)cc3)C(C)C)c2=O)s1` is 0

More entries:
Value of Soybean plant response rating reported for the compound `CC(C)N(C(=O)n1oc(=O)n(CC2CCC2)c1=O)c1ccc(F)cc1` is 4
